tested on: Pimephales promelas; assay: 96 h LC50 (-log10 mol/L); higher = more toxic
Rule: true (1) for 96 h LC50 (-log10 mol/L) not less than 4, false (0) for anything less.

{"compound smiles": "CC(=O)c1ccccc1", "class name": "false (0)"}
{"compound smiles": "c1ccc(-c2ccccc2)cc1", "class name": "true (1)"}
{"compound smiles": "NC(=O)c1c(Cl)cccc1Cl", "class name": "false (0)"}
{"compound smiles": "COC(=O)c1ccc(C(=O)OC)c(N)c1", "class name": "true (1)"}

====

system: Tetrahymena pyriformis; experiment: 48 h IGC50 (-log10 mol/L); higher = more toxic

{"compound smiles": "O=[N+]([O-])c1cccc2ncccc12", "system tested": "Tetrahymena pyriformis", "48 h IGC50 (-log10 mol/L)": 3.39}
{"compound smiles": "O=C(O)c1cc(Br)cc(Br)c1", "system tested": "Tetrahymena pyriformis", "48 h IGC50 (-log10 mol/L)": 3.46}
{"compound smiles": "CCCCOc1ccc([N+](=O)[O-])cc1", "system tested": "Tetrahymena pyriformis", "48 h IGC50 (-log10 mol/L)": 4.42}
{"compound smiles": "CCCCCCC#CCCO", "system tested": "Tetrahymena pyriformis", "48 h IGC50 (-log10 mol/L)": 4.13}
{"compound smiles": "Cc1ccc(O)cc1C", "system tested": "Tetrahymena pyriformis", "48 h IGC50 (-log10 mol/L)": 3.12}
{"compound smiles": "S=C=NCCCc1ccccc1", "system tested": "Tetrahymena pyriformis", "48 h IGC50 (-log10 mol/L)": 5.54}
{"compound smiles": "Oc1c(F)c(F)cc(F)c1F", "system tested": "Tetrahymena pyriformis", "48 h IGC50 (-log10 mol/L)": 4.17}
{"compound smiles": "ClC(Cl)c1ccccc1", "system tested": "Tetrahymena pyriformis", "48 h IGC50 (-log10 mol/L)": 3.11}
{"compound smiles": "OCC(Br)(Br)Br", "system tested": "Tetrahymena pyriformis", "48 h IGC50 (-log10 mol/L)": 3.11}
{"compound smiles": "O=[N+]([O-])c1c(Cl)cc(Cl)cc1Cl", "system tested": "Tetrahymena pyriformis", "48 h IGC50 (-log10 mol/L)": 4.43}
{"compound smiles": "O=C(O)c1ccccc1Cl", "system tested": "Tetrahymena pyriformis", "48 h IGC50 (-log10 mol/L)": 2.55}
{"compound smiles": "CN(C)Cc1cc(CN(C)C)c(O)c(CN(C)C)c1", "system tested": "Tetrahymena pyriformis", "48 h IGC50 (-log10 mol/L)": 2.48}
{"compound smiles": "C=C(C)C(=O)OCCO", "system tested": "Tetrahymena pyriformis", "48 h IGC50 (-log10 mol/L)": 1.92}
{"compound smiles": "Nc1cccc(O)c1", "system tested": "Tetrahymena pyriformis", "48 h IGC50 (-log10 mol/L)": 2.48}
{"compound smiles": "CCCCCc1ccccc1", "system tested": "Tetrahymena pyriformis", "48 h IGC50 (-log10 mol/L)": 4.79}
